Recorded values, source PubChem BioAssay AID489023.

System: 697B cells, BCR-induced NF-kB luciferase reporter luminescence
Experiment: inhibitors of BCR-induced NF-kB activation, dose response, 697B cells, luciferase luminescence (AID 489023)
The source made the active and inactive calls. No rule for the calls is given here.
Use one of these outcomes when replying: true (1) = active, false (0) = inactive

Record excerpt, results attached:
molecule | group_label
NNC(=O)COc1ccc(-c2nccc(-c3ccc(F)cc3)n2)cc1 | true (1)
Cc1ccccc1-n1c(SCc2c(C)noc2C)nnc1-c1c[nH]c2ccccc12 | false (0)
Oc1cc(O)cc(-c2cc3ccc(O)cc3o2)c1 | false (0)
Cn1nc(-c2ccc(Cl)cc2)c2cc(C(=O)N3CCCC3)sc21 | false (0)
Cc1ccc(NC(=O)C2CCC(CNc3c(N4CCC(C)CC4)c(=O)c3=O)CC2)cc1F (stereo not given) | false (0)
CCOc1ccc(-c2cc(CCCC(=O)NCc3ccc(C)cc3)no2)cc1 | false (0)
COc1cc(OC)cc(-c2cc3nc(C)c(CCC(=O)NCc4ccccc4)c(C)n3n2)c1 | true (1)
CCN(CC)c1ccc(/C=N/N=C(c2ccccc2)c2ccccc2)c(O)c1 | false (0)

Please share the test call associated with "Cc1cc(C)cc(OCc2nnc(SCC(=O)c3ccccc3)o2)c1" .
false (0)

Hi team, can someone confirm the assay call for "COc1ccc(/C=C2\SC(=S)N(CCCC(=O)NNC(=O)c3ccccc3O)C2=O)cc1" ?
true (1)
